These entries and their values trace back to ChEMBL document CHEMBL5537189.

Heads up, these compounds all have EC50 values measured for Retinoic acid receptor RXR-gamma (Homo sapiens, UniProt P48443).
Observation Type: EC50 (µM)

As a guide, the following entries are already answered.
| Compound | EC50 / µM |
| --- | --- |
| CN(c1cccc(C(F)(F)F)c1)c1cc(Cl)nc(OCCC(=O)O)n1 | 2.7 |
| Cc1cccc(N(C)c2cc(Cl)nc(OCCC(=O)O)n2)c1 | 2.6 |
| Cc1cc(C)cc(N(C)c2cc(Cl)nc(OCCC(=O)O)n2)c1 | 0.16 |
| CN(c1cccc(Br)c1)c1cc(Cl)nc(OCCC(=O)O)n1 | 1.8 |
| O=C(O)CCOc1nc(Cl)cc(N2CCCc3ccc(Cl)cc32)n1 | 0.14 |
| Cc1cc(C)c2c(c1)N(c1cc(Cl)nc(OCCC(=O)O)n1)CCC2 | 0.04 |
| CN(c1ccc(Cl)c(Cl)c1)c1cc(Cl)nc(OCCC(=O)O)n1 | 6 |
| CN(c1cc(Cl)nc(OCCC(=O)O)n1)c1cccc2c1CCC2 | 1.2 |

1 = CN(c1ccccc1)c1cc(Cl)nc(OCCC(=O)O)n1
2 = O=C(O)CCOc1nc(Cl)cc(N2CCCc3ccccc32)n1
3 = CC1CCN(c2cc(Cl)nc(OCCC(=O)O)n2)c2cc(Cl)ccc21 (stereo not drawn)
4 = Cc1ccc2c(c1)N(c1cc(Cl)nc(OCCC(=O)O)n1)CCC2C (stereo not drawn)
5 = CN(c1cc(Cl)nc(OCCC(=O)O)n1)c1cccc(Cl)c1Cl
## Input Hello, I need these entries ordered by EC50, highest reading first. Thanks! Please respond by ranking the labels in the order requested.
## Output 1, 5, 2, 3, 4
(1: 31 µM, 5: 14 µM, 2: 0.68 µM, 3: 0.1 µM, 4: 0.06 µM)
